Exercise: state measured inhibition for each of the compounds provided.
TESTED TARGET: NAD-dependent protein deacetylase sirtuin-1 (Homo sapiens) (UniProt Q96EB6)
Sequence (Q96EB6 whole entry): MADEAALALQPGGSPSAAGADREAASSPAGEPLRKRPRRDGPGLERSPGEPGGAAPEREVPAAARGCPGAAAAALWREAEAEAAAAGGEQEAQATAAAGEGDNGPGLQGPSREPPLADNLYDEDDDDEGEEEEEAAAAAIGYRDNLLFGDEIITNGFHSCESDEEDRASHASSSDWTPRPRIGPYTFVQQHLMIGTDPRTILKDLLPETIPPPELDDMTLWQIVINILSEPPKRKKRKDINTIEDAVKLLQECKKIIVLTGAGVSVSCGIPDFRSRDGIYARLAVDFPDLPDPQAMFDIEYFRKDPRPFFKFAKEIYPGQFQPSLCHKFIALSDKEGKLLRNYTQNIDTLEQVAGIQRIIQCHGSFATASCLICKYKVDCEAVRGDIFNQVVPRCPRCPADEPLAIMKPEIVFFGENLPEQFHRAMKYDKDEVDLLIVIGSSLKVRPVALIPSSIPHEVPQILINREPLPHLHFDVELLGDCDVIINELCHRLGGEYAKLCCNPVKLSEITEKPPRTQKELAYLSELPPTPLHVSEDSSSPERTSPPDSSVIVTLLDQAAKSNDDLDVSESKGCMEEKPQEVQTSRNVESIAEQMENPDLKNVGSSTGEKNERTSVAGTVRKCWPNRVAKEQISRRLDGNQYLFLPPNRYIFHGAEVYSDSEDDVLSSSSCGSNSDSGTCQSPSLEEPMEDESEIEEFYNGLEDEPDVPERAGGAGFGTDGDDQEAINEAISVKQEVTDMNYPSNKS
ASSAY COMMENT: Inhibition of human recombinant SIRT1 expressed in Escherichia coli at 50 uM incubated at 37 degC for 2 hrs by Fluor de Lys fluorescence assay

Write down the reported inhibition of Cn1cccc1-c1[nH]c(=S)[nH]c(=O)c1Cc1c(O)ccc2ccccc12 , test system: NAD-dependent protein deacetylase sirtuin-1 (Homo sapiens) (UniProt Q96EB6). 81.3%

Write down the reported inhibition of O=C1Oc2ccc3ccccc3c2CC1C(=O)c1ccsc1 (centres undefined) , test system: NAD-dependent protein deacetylase sirtuin-1 (Homo sapiens) (UniProt Q96EB6). 19.1%

Write down the reported inhibition of O=C1Oc2ccc3ccccc3c2CC1C(=O)c1ccoc1 (centres undefined) , test system: NAD-dependent protein deacetylase sirtuin-1 (Homo sapiens) (UniProt Q96EB6). 18%

Write down the reported inhibition of O=c1[nH]c(=S)[nH]c(-c2cccc(Cl)c2)c1Cc1c(O)ccc2ccccc12 , test system: NAD-dependent protein deacetylase sirtuin-1 (Homo sapiens) (UniProt Q96EB6). 82.6%

Write down the reported inhibition of O=c1[nH]c(=S)[nH]c(CCc2ccccc2)c1Cc1c(O)ccc2ccccc12 , test system: NAD-dependent protein deacetylase sirtuin-1 (Homo sapiens) (UniProt Q96EB6). 83%

Write down the reported inhibition of O=C1Oc2ccc3ccccc3c2CC1C(=O)c1cccs1 (centres undefined) , test system: NAD-dependent protein deacetylase sirtuin-1 (Homo sapiens) (UniProt Q96EB6). 33.2%

Write down the reported inhibition of O=c1[nH]c(=S)[nH]c(-c2cccs2)c1Cc1c(O)ccc2ccccc12 , test system: NAD-dependent protein deacetylase sirtuin-1 (Homo sapiens) (UniProt Q96EB6). 77.8%

Write down the reported inhibition of O=c1[nH]c(=S)[nH]c(Cc2ccccc2)c1Cc1c(O)ccc2ccccc12 , test system: NAD-dependent protein deacetylase sirtuin-1 (Homo sapiens) (UniProt Q96EB6). 82.4%

Write down the reported inhibition of O=c1[nH]c(=S)[nH]c(-c2ccc3ccccc3c2)c1Cc1c(O)ccc2ccccc12 , test system: NAD-dependent protein deacetylase sirtuin-1 (Homo sapiens) (UniProt Q96EB6). 83%

Write down the reported inhibition of Cc1ccccc1C(=O)C1Cc2c(ccc3ccccc23)OC1=O (centres undefined) , test system: NAD-dependent protein deacetylase sirtuin-1 (Homo sapiens) (UniProt Q96EB6). 25%

Write down the reported inhibition of O=c1[nH]c(=S)[nH]c(-c2ccoc2)c1Cc1c(O)ccc2ccccc12 , test system: NAD-dependent protein deacetylase sirtuin-1 (Homo sapiens) (UniProt Q96EB6). 78.2%

Write down the reported inhibition of O=C1Oc2ccc3ccccc3c2CC1C(=O)c1cc2ccccc2s1 (centres undefined) , test system: NAD-dependent protein deacetylase sirtuin-1 (Homo sapiens) (UniProt Q96EB6). 35.1%

Write down the reported inhibition of O=C1Oc2ccc3ccccc3c2CC1C(=O)c1cc2ccccc2o1 (centres undefined) , test system: NAD-dependent protein deacetylase sirtuin-1 (Homo sapiens) (UniProt Q96EB6). 30.4%

Write down the reported inhibition of O=c1[nH]c(=S)[nH]c(-c2ccc(-c3ccccc3)cc2)c1Cc1c(O)ccc2ccccc12 , test system: NAD-dependent protein deacetylase sirtuin-1 (Homo sapiens) (UniProt Q96EB6). 81.9%

Write down the reported inhibition of O=C(CCc1ccccc1)C1Cc2c(ccc3ccccc23)OC1=O (centres undefined) , test system: NAD-dependent protein deacetylase sirtuin-1 (Homo sapiens) (UniProt Q96EB6). 24.6%

Write down the reported inhibition of O=C1Oc2ccc3ccccc3c2CC1C(=O)c1ccccc1Cl (centres undefined) , test system: NAD-dependent protein deacetylase sirtuin-1 (Homo sapiens) (UniProt Q96EB6). 28.3%

Write down the reported inhibition of O=C1Oc2ccc3ccccc3c2CC1C(=O)c1ccc2ccccc2c1 (centres undefined) , test system: NAD-dependent protein deacetylase sirtuin-1 (Homo sapiens) (UniProt Q96EB6). 5.2%

Write down the reported inhibition of O=C1Oc2ccc3ccccc3c2CC1C(=O)c1ccc(-c2ccccc2)cc1 (centres undefined) , test system: NAD-dependent protein deacetylase sirtuin-1 (Homo sapiens) (UniProt Q96EB6). 8.9%

Write down the reported inhibition of O=C1Oc2ccc3ccccc3c2CC1C(=O)c1ccc(Cl)cc1 (centres undefined) , test system: NAD-dependent protein deacetylase sirtuin-1 (Homo sapiens) (UniProt Q96EB6). 17.1%

Write down the reported inhibition of O=c1[nH]c(=S)[nH]c(-c2cc3ccccc3s2)c1Cc1c(O)ccc2ccccc12 , test system: NAD-dependent protein deacetylase sirtuin-1 (Homo sapiens) (UniProt Q96EB6). 82.1%

Write down the reported inhibition of O=c1[nH]c(=S)[nH]c(-c2ccccc2Cl)c1Cc1c(O)ccc2ccccc12 , test system: NAD-dependent protein deacetylase sirtuin-1 (Homo sapiens) (UniProt Q96EB6). 82.3%

Write down the reported inhibition of Cc1cccc(C(=O)C2Cc3c(ccc4ccccc34)OC2=O)c1 (centres undefined) , test system: NAD-dependent protein deacetylase sirtuin-1 (Homo sapiens) (UniProt Q96EB6). 19.1%

Write down the reported inhibition of O=C1Oc2ccc3ccccc3c2CC1C(=O)c1ccncc1 (centres undefined) , test system: NAD-dependent protein deacetylase sirtuin-1 (Homo sapiens) (UniProt Q96EB6). 69.3%

Write down the reported inhibition of Cc1ccc(C(=O)C2Cc3c(ccc4ccccc34)OC2=O)cc1 (centres undefined) , test system: NAD-dependent protein deacetylase sirtuin-1 (Homo sapiens) (UniProt Q96EB6). 11.3%

Values were extracted from ChEMBL document CHEMBL1795290.
